Test system: HeLa
Experiment: Cytotoxicity against human HeLa cells after 48 hrs by MTT assay
Type: functional, cell-based
measure_name: IC50 (µM)
Give bare numbers, in µM.

compound_smiles=CC(C)(C)c1ccc(/C=C/[C@](C)(O)CC[C@@H]2[C@@]3(C)CCCC(C)(C)[C@@H]3CC[C@@]2(C)O)cc1 experimental_target=HeLa measure_name=IC50 unit_symbol=µM number=48.5
compound_smiles=CC1(C)CCC[C@]2(C)[C@@H](CC[C@@](C)(O)/C=C/c3ccc(F)cc3)[C@](C)(O)CC[C@@H]12 experimental_target=HeLa measure_name=IC50 unit_symbol=µM number=3.46

Hey, quick one: what's IC50 for each of these?
1. CC1(C)CCC[C@]2(C)[C@@H](CC[C@@](C)(O)/C=C/c3ccccc3)[C@](C)(O)CC[C@@H]12
2. CC1(C)CCC[C@]2(C)[C@@H](CC[C@@](C)(O)/C=C/c3ccc(C(=O)O)cc3)[C@](C)(O)CC[C@@H]12

Output:
1. 3.32
2. 45.4
